Assay: Selectivity ratio of Ki for GABAA alpha-3-beta-3-gamma-2 receptor to Ki for GABAA alpha-5-beta-3-gamma-2 receptor
Rule: Ratio Ki below 100 gives label 1. Equal to or above 100 gives label 0.

Consider `Cc1cc(Cc2nc3n(n2)Cc2c(C)ncn2-c2ccc(OC(F)(F)F)cc2-3)on1` . Does its Ratio Ki lie strictly below 100?
label 0

Same question for `Cc1cc(Cc2nc3n(n2)Cc2c(C)ncn2-c2ccccc2-3)on1` please.
label 1

Moving on to the next compound: `Cc1cc(Cc2nc3n(n2)Cc2c(C)ncn2-c2ccc(Br)cc2-3)on1`
label 0

// next record `Cc1ncn2c1Cn1nc(CC3CC3)nc1-c1cc(Br)ccc1-2`
label 1

// query: `Cc1ccc2c(c1)-c1nc(Cc3cc(C)no3)nn1Cc1c(C)ncn1-2`
label 0

Same question, `Cc1cc(Cc2nc3n(n2)Cc2c(C)ncn2-c2ccc(Cl)cc2-3)on1` this time
label 0

What about this compound? `COc1ccc2c(c1)-c1nc(Cc3cc(C)no3)nn1Cc1c(C)ncn1-2`
label 0

* * *

Assay: Solubility of the compound
Assay type: physicochemical
Answer each item with its documented solubility.
// return numeric value only (unit: µg/mL, not printed)

So what does the record say about solubility for `Cc1cc(Cc2nc3n(n2)Cc2c(C)ncn2-c2ccc(Cl)cc2-3)on1` ?
14

Likewise for `Cc1ncn2c1Cn1nc(CN3CCCC3=O)nc1-c1cc(Br)ccc1-2` ?
550

Also `Cc1cc(Cc2nc3n(n2)Cc2c(C)ncn2-c2ccc(Br)cc2-3)on1` ?
7

* * *

Test: Permeability by PAMPA
Assay type: ADME
Conditions: read-out: permeability
QUANTITY MEASURED: Papp (nm/s)
Give the value, in units of nm/s, as a plain number.

What value of measured Papp is listed for `Cc1cc(Cc2nc3n(n2)Cc2c(C)ncn2-c2ccc(Cl)cc2-3)on1` ?
31

Next: `Cc1cc(Cc2nc3n(n2)Cc2c(C)ncn2-c2ccc(Br)cc2-3)on1`
33

Repeat with `Cc1ncn2c1Cn1nc(CN3CCCC3=O)nc1-c1cc(Br)ccc1-2`
15

* * *

Target: GABA-A receptor; alpha-2/beta-3/gamma-2 (Homo sapiens, UniProt P18507+P28472+P47869)
Sequence (P18507 whole entry): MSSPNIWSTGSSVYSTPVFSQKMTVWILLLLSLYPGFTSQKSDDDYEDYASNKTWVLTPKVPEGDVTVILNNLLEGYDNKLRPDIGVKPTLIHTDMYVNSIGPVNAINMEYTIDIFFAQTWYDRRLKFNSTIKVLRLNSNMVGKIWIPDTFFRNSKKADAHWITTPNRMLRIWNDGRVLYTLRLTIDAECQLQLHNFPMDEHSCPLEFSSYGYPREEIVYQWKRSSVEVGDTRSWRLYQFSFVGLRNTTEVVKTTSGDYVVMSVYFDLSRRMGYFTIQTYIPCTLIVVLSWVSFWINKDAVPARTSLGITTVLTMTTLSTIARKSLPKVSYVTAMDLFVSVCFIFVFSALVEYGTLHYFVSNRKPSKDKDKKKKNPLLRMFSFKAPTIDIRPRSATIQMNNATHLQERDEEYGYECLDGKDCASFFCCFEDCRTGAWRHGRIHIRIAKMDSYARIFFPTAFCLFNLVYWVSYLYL
Sequence (P28472 whole entry): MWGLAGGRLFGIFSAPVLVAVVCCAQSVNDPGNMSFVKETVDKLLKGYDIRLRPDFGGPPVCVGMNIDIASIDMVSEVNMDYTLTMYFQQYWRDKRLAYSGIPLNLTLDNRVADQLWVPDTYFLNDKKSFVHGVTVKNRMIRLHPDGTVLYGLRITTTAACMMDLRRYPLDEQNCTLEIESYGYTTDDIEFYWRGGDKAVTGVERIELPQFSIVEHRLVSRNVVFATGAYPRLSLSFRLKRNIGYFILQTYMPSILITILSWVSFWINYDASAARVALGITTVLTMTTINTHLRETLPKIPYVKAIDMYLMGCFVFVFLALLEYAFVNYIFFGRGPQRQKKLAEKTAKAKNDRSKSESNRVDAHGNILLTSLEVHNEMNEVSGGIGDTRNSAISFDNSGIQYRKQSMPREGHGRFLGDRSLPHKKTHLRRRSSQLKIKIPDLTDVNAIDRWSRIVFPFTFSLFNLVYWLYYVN
Sequence (P47869 whole entry): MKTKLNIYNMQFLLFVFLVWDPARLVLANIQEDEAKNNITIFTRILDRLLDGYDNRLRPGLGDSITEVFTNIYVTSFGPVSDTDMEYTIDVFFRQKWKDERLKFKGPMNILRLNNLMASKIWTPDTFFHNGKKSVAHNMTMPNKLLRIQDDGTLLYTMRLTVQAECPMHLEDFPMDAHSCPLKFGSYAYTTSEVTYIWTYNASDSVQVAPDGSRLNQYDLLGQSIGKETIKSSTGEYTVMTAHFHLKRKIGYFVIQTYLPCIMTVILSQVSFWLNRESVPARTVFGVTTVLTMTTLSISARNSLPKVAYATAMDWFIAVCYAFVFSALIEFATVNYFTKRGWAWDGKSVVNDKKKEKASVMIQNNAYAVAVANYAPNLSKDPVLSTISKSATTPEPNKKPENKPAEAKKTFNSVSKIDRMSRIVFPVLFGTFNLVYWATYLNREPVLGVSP
Test: Displacement of [3H]flumazenil from GABAA alpha-2-beta-3-gamma-2 receptor
QUANTITY MEASURED: Ki (µM)
Write it as a number; the unit µM goes unstated.

Recall the recorded Ki for `Cc1ncn2c1Cn1nc(CN3CCCC3=O)nc1-c1cc(Br)ccc1-2` with GABA-A receptor; alpha-2/beta-3/gamma-2 (Homo sapiens, UniProt P18507+P28472+P47869) and state it.
0.669

Do the same for `Cc1ncn2c1Cn1nc(C(C)(C)C)nc1-c1cc(Br)ccc1-2` please
1.07

Again, but for `COCc1nc2n(n1)Cc1c(C)ncn1-c1ccc(Br)cc1-2`
0.693

Attribution: ChEMBL document CHEMBL1154267
